ASSAY TEXT: Displacement of [3H]CP-526427 from AMPA receptor in Sprague-Dawley rat fore brain by radioligand binding assay
PROPERTY NAME: pIC50
The value called pIC50 is obtained by taking minus log10 of the concentration in mol/L.

Worked examples, 3 compounds total:
>>> reported_result("CC1=NN=C(c2ccc(N)cc2)c2cc3c(cc2C1)OCO3")
4.90
>>> reported_result("Cc1cc(C2=NNC(=O)Cc3cc4c(cc32)OCO4)ccc1N")
5.20
>>> reported_result("COc1cc(C2=NNC(=O)Cc3cc4c(cc32)OCCO4)ccc1N")
4.09

Turning to the following compound.
Please report the recorded pIC50 for Cc1cc(C2=NNC(=O)Cc3cc4c(cc32)OCCO4)ccc1N .
5.74
